Give measured GI50 for each item. Keep answers brief.
tested on: Ba/F3-CDM cells (Ba/F3 transfected with CD8-MerTK); test: In cell MER kinase assay, Ba/F3-CDM cell proliferation without IL-3 (Celltiter-Glo, GI50); type: cell-based, murine; details: 48 hours, read-out: Cell growth inhibition (GI50)

Exam item: Can you share its GI50? I mean this molecule: C[C@@H](c1ccc(-c2ccc(CO[C@H]3CCC[C@@H]3NC(=O)c3cc(-c4ccc(F)nc4)cnc3N)cc2)cc1)N1CCN(CCO)CC1 [Example 226]
Marked response: < 100 nM

Exam item: Quick one: GI50 for C[C@@H]1CN(C)[C@@H](C)CN1Cc1ccc(-c2ccc(CO[C@H]3CCC[C@@H]3NC(=O)c3cc(-c4cnn(C)c4)cnc3N)cc2)cc1 [Example 192] ?
Marked response: < 100 nM

Exam item: # GI50 lookup, item C[C@@H](c1ccc(-c2ccc(CO[C@H]3CCC[C@@H]3NC(=O)c3cc(-c4ccc(F)nc4)cnc3N)cc2)cc1)N1CCN(C)CC1 [Example 222]
Marked response: < 100 nM
